- Tested on: Escherichia coli TOP10;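 note: peptides expressed intracellularly from a pBAD plasmid library in pooled LB shake-flask culture, induced with 0.3% L-arabinose, DNA abundance read by NGS, three biological replicates, DESeq2 with apeglm shrinkage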
- assayProtocol: shrunken log2 fold change of peptide-encoding DNA abundance (4.5 h post-induction vs induction); higher = less antimicrobial activity (less host growth inhibition)
- testContext: time post-induction: 4.5 h; library: site-saturation at positions 5, 18, 19, 20
Lab note: anything with shrunken log2 fold change at or over 0.02 counts as rule met; the rest go in rule not met.

- biosequence: "RRIRPRPPRLPRPRPRPPICPRP"
  testTarget: "Escherichia coli TOP10"
  groupLabel: "rule not met"
- biosequence: "RRIRARPPRLPRPRPRPFYRPRP"
  testTarget: "Escherichia coli TOP10"
  groupLabel: "rule not met"
- biosequence: "RRIRWRPPRLPRPRPRPQPCPRP"
  testTarget: "Escherichia coli TOP10"
  groupLabel: "rule met"
- biosequence: "RRIRQRPPRLPRPRPRPYWTPRP"
  testTarget: "Escherichia coli TOP10"
  groupLabel: "rule not met"
- biosequence: "RRIRNRPPRLPRPRPRPTVSPRP"
  testTarget: "Escherichia coli TOP10"
  groupLabel: "rule not met"
- biosequence: "RRIRGRPPRLPRPRPRPTIFPRP"
  testTarget: "Escherichia coli TOP10"
  groupLabel: "rule met"
- biosequence: "RRIRKRPPRLPRPRPRPEYRPRP"
  testTarget: "Escherichia coli TOP10"
  groupLabel: "rule not met"
- biosequence: "RRIRERPPRLPRPRPRPMRCPRP"
  testTarget: "Escherichia coli TOP10"
  groupLabel: "rule met"
- biosequence: "RRIRERPPRLPRPRPRPDYDPRP"
  testTarget: "Escherichia coli TOP10"
  groupLabel: "rule not met"
- biosequence: "RRIRMRPPRLPRPRPRPHNVPRP"
  testTarget: "Escherichia coli TOP10"
  groupLabel: "rule met"
- biosequence: "RRIRGRPPRLPRPRPRPEQGPRP"
  testTarget: "Escherichia coli TOP10"
  groupLabel: "rule met"
- biosequence: "RRIRMRPPRLPRPRPRPRHIPRP"
  testTarget: "Escherichia coli TOP10"
  groupLabel: "rule not met"
- biosequence: "RRIRQRPPRLPRPRPRPNDYPRP"
  testTarget: "Escherichia coli TOP10"
  groupLabel: "rule not met"
- biosequence: "RRIRERPPRLPRPRPRPLESPRP"
  testTarget: "Escherichia coli TOP10"
  groupLabel: "rule not met"
- biosequence: "RRIRPRPPRLPRPRPRPVEFPRP"
  testTarget: "Escherichia coli TOP10"
  groupLabel: "rule met"
- biosequence: "RRIRNRPPRLPRPRPRPYYIPRP"
  testTarget: "Escherichia coli TOP10"
  groupLabel: "rule not met"
- biosequence: "RRIRCRPPRLPRPRPRPMPYPRP"
  testTarget: "Escherichia coli TOP10"
  groupLabel: "rule not met"
- biosequence: "RRIRNRPPRLPRPRPRPTAAPRP"
  testTarget: "Escherichia coli TOP10"
  groupLabel: "rule met"
- biosequence: "RRIRVRPPRLPRPRPRPNKVPRP"
  testTarget: "Escherichia coli TOP10"
  groupLabel: "rule not met"
- biosequence: "RRIRYRPPRLPRPRPRPQQMPRP"
  testTarget: "Escherichia coli TOP10"
  groupLabel: "rule not met"
- biosequence: "RRIRSRPPRLPRPRPRPMWNPRP"
  testTarget: "Escherichia coli TOP10"
  groupLabel: "rule not met"
- biosequence: "RRIRFRPPRLPRPRPRPAKRPRP"
  testTarget: "Escherichia coli TOP10"
  groupLabel: "rule met"
- biosequence: "RRIRVRPPRLPRPRPRPASDPRP"
  testTarget: "Escherichia coli TOP10"
  groupLabel: "rule met"
- biosequence: "RRIRFRPPRLPRPRPRPKYCPRP"
  testTarget: "Escherichia coli TOP10"
  groupLabel: "rule met"
- biosequence: "RRIRYRPPRLPRPRPRPLVDPRP"
  testTarget: "Escherichia coli TOP10"
  groupLabel: "rule not met"
- biosequence: "RRIRTRPPRLPRPRPRPDDNPRP"
  testTarget: "Escherichia coli TOP10"
  groupLabel: "rule not met"
- biosequence: "RRIRSRPPRLPRPRPRPQETPRP"
  testTarget: "Escherichia coli TOP10"
  groupLabel: "rule met"
- biosequence: "RRIRQRPPRLPRPRPRPRITPRP"
  testTarget: "Escherichia coli TOP10"
  groupLabel: "rule met"
- biosequence: "RRIRIRPPRLPRPRPRPHCEPRP"
  testTarget: "Escherichia coli TOP10"
  groupLabel: "rule not met"
- biosequence: "RRIRKRPPRLPRPRPRPGNWPRP"
  testTarget: "Escherichia coli TOP10"
  groupLabel: "rule met"
- biosequence: "RRIRKRPPRLPRPRPRPQAQPRP"
  testTarget: "Escherichia coli TOP10"
  groupLabel: "rule met"
- biosequence: "RRIRFRPPRLPRPRPRPVECPRP"
  testTarget: "Escherichia coli TOP10"
  groupLabel: "rule not met"
